# Test system: RARb:RXRa (NR concentration 270 nM, RXRa partner concentration 90 nM)
# ASSAY PROCEDURE: PBM binding z-score (relative to random genomic background probes); higher = stronger binding; sequences stand for … in GC…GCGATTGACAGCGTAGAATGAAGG
Respond with true (1) for PBM binding z-score values of 3 and above, false (0) for values below.

INPUT: Item "ACTATTATTTGAGACGAGGGCAACCGATAGGTTG" with PBM binding z-score of 3 or above?
OUTPUT: false (0)

INPUT: Could you tell me if the measured PBM binding z-score of "TCTAGTTGGTCACGGAGGTCACTCACGACGGGTA" reaches 3 or more?
OUTPUT: true (1)

INPUT: Given the entry "TCTGCTAGGTCAGTTGGTCAGATAACGAGCTGCC" , answer whether its PBM binding z-score meets or surpasses 3.
OUTPUT: true (1)

INPUT: Evaluate "GGAACGAGGGCAAAGTTAATAGCATCTGTCGACG" : PBM binding z-score at minimum 3?
OUTPUT: false (0)

INPUT: Given the entry "ATCGAAAGGTCGACTAGGTGAGTATACACCGTTT" , answer whether its PBM binding z-score meets or surpasses 3.
OUTPUT: true (1)

***
INPUT: Please check the record "GCTGCTATGTCAACTGATGGTCAGCTAAAGCTCG" and state if its PBM binding z-score is at or above 3.
OUTPUT: false (0)

INPUT: Is the recorded value of PBM binding z-score equal to or greater than 3 for this sequence? "ATATGTAGGTTTTCGGGTCATTCAGTTTGCGCAT"
OUTPUT: false (0)

INPUT: Item "AGAATGAGGTTATACATAGATCAGGGAAGAAAGT" with PBM binding z-score of 3 or above?
OUTPUT: false (0)

INPUT: Check the entry "AGAATGACGTTAAGATCAGGGAAACAGAATACAT" : does PBM binding z-score equal or exceed 3?
OUTPUT: false (0)

INPUT: Record "ATCTCTTGGTAAGACTCAGTTCAGTGAAGAACGC" ; criterion: PBM binding z-score no lower than 3. Met?
OUTPUT: false (0)

INPUT: In plain terms: is recorded PBM binding z-score at least 3 for "ACAGACAGGTGATAAAGGTAACTCAGGCTATCAT" ?
OUTPUT: false (0)
